Source: patent US20230365675A1

# assay-target: Biotinylated CD33 protein (UniProt P20138)
# Sequence (P20138 18-259 limits assumed): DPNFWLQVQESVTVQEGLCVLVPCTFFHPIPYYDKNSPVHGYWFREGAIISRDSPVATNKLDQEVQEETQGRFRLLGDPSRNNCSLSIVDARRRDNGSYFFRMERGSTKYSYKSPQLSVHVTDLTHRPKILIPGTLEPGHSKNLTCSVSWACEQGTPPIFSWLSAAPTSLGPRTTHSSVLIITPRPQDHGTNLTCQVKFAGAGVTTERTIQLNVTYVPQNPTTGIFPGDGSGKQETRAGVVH
# assay-name: Octet competition on biotinylated CD33; competitor 353
Classify by measured Octet signal: criterion met if it is equal to or exceeds 0.2, criterion not met if it is smaller.

Examples with answers:
{"binder": "sdCD33_9 (VHH, sdAb from a naive llama phage library; also called 426; sdAb426) VHH: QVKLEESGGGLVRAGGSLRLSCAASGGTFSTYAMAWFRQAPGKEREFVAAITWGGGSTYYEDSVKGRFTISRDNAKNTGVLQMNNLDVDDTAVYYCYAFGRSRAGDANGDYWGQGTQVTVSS", "assigned-category": "criterion met"}
{"binder": "sdCD33_8 (VHH, sdAb from a naive llama phage library; also called 424; sdAb424) VHH: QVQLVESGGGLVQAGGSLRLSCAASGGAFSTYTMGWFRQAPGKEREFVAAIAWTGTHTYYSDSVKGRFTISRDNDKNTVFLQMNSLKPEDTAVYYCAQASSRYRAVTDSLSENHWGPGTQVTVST", "assigned-category": "criterion met"}
{"binder": "sdCD33_2 (VHH) VHH: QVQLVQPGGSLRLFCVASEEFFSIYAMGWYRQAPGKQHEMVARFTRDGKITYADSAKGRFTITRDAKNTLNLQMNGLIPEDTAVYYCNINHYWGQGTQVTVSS", "assigned-category": "criterion met"}
{"binder": "sdCD33_10 (VHH) VHH: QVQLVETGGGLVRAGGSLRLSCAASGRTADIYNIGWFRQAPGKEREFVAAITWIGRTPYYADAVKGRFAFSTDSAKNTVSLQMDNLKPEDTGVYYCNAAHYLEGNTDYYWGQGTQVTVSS", "assigned-category": "criterion met"}
{"binder": "sdCD33_5 (VHH, sdAb from a naive llama phage library; also called 413; sdAb413) VHH: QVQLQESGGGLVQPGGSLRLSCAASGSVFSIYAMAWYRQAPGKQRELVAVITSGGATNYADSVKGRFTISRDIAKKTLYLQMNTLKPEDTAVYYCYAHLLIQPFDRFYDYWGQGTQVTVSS", "assigned-category": "criterion met"}

Continue with the next binder.
[Q] For this binder, is measured Octet signal 0.2 or higher? sdCD33_7 (VHH, sdAb from a naive llama phage library; also called 420; sdAb420) VHH: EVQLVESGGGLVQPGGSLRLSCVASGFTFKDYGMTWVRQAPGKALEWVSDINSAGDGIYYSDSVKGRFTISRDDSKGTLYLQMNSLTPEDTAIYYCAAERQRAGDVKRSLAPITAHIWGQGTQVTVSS
[A] criterion not met
